# Test system: Wolbachia pipientis
# assay name: Anti-Wolbachia Cell-Based Screen
# Assay type: functional
# Design: scale not given: in the data most compounds retested in dose-response had high values
# condition summary: 5 µM
About 13,000 (27%) of roughly 48,000 compounds showed an effect of 50% or more. The list shows a part of the results.
Each item that follows carries a reported Percent Effect.
Report the figure in % without appending any unit label.

Example entries begin here.
[
  {
    "compound": "CCOC(CC)C(=O)NCc1cccc(N2CCCCC2=O)c1 (stereo unspecified)",
    "subject of test": "Wolbachia pipientis",
    "reading unit": "%",
    "Percent Effect": -0.7778
  },
  {
    "compound": "Cc1cnn(CCCN2C(=O)CCc3ccccc32)c1",
    "subject of test": "Wolbachia pipientis",
    "reading unit": "%",
    "Percent Effect": 16.17
  },
  {
    "compound": "CC(C)c1noc(CN2CCN(C(=O)c3cccc(F)c3)CC2)n1",
    "subject of test": "Wolbachia pipientis",
    "reading unit": "%",
    "Percent Effect": 101.9
  }
]

"COc1cccc(C(=O)N2CCN(Cc3nc(C(C)C)no3)CC2)c1" on Wolbachia pipientis gives Percent Effect = 117.9

Given the compound CCOC(C)c1noc(CN2CCN(Cc3cccc(F)c3)CC2)n1 (stereo unspecified) and test system Wolbachia pipientis, the measured Percent Effect is -0.1841

Lab note: compound "CC(C)c1noc(CN2CCN(C(=O)c3ccc(F)cc3)CC2)n1" tested on Wolbachia pipientis; recorded Percent Effect was 109.7

Short answer on Wolbachia pipientis for "Cc1ccc(C(=O)N2CCN(Cc3nc(C(C)C)no3)CC2)c(=O)[nH]1" , Percent Effect: -11.93

Reported Wolbachia pipientis Percent Effect for item "CC(=O)N1CCC(c2nc(C)cc(-c3ccccc3C(=O)O)n2)CC1" was 83.33

Let me check: Cc1cc(C(=O)N2CCCC(c3noc(C)n3)C2)[nH]n1 (stereo unspecified) , system Wolbachia pipientis, measured Percent Effect is -10.2

Item "CC(C)[C@H](CO)Nc1nccc(-c2c[nH]nc2-c2ccncc2)n1" was tested on Wolbachia pipientis; the reported Percent Effect is 88.77

Fill in: Wolbachia pipientis Percent Effect for "CCc1ccccc1OCCN1CC[C@@]2(O)CCNC[C@H]2C1" = 3.949

---

# Test system: Wolbachia pipientis
# assay name: Anti-Wolbachia Cell-Based Screen
# Format: functional
# Design: scale not given: in the data most compounds retested in dose-response had high values
# condition summary: 5 µM
The whole screen tested about 48,000 compounds, of which about 13,000 (27%) showed an effect of 50% or more. Some of the results follow.
Catalogue of Percent Effect values
Write it as a number; the unit % goes unstated.

Examples with their reported Percent Effect follow.
[
  {
    "molecule": "COCc1ccc(C(=O)N2CCCN(Cc3ccc(F)cc3)CC2)s1",
    "Percent Effect / %": 2.247
  },
  {
    "molecule": "c1cncc(-c2nc(C3CC3)ncc2-c2ccnc(N3CCCC3)n2)c1",
    "Percent Effect / %": 90.28
  },
  {
    "molecule": "CCC(C)C(=O)NS(=O)(=O)c1ccc(C#N)cc1C(F)(F)F (stereo unspecified)",
    "Percent Effect / %": 121.4
  },
  {
    "molecule": "CCNc1ncc(C(=O)N[C@H](C(N)=O)c2ccccc2)cn1",
    "Percent Effect / %": 7.272
  },
  {
    "molecule": "CC(C)C(Sc1nncn1C1CC1)C(=O)NCc1cccnc1 (stereo unspecified)",
    "Percent Effect / %": 102
  }
]

Form: molecule = "CNC(=O)[C@@H]1C[C@H](N)CN1S(=O)(=O)c1cc(C)c(Cl)cc1C" ; Percent Effect = 4.211

Record "N#Cc1ccc(S(=O)(=O)NC(=O)C2CC2)c(C(F)(F)F)c1" , field Percent Effect: 6.344

The molecule listed as "Cc1noc(-c2ccc(N3CCC[C@H]3CO)nc2)n1" has a reported Percent Effect of 4.962

Briefly, Percent Effect measured for CC(C)C(Sc1nnc(C2CC2)n1C1CC1)C(=O)NCc1cccnc1 (stereo unspecified) : 2.12

Noted for "CN(Cc1nc(Cc2cccc(F)c2)no1)C1CCOCC1" : its Percent Effect reads 108

Input Cc1ccc(CC(=O)N2CSCC2C(=O)N(C)Cc2ccco2)o1 (stereo unspecified) . Output Percent Effect: 8.524

For CC(c1ccccc1F)N(C(=O)CSCC(N)=O)C1CC1 (stereo unspecified) the molecule record lists Percent Effect as -1.119

The recorded Percent Effect for entry Cc1cc(CN(C)C(=O)NC2CCC(O)CC2)no1 (stereo unspecified) equals -5.162

Value of measured Percent Effect for the entry "CN(C)C(=O)COC[C@@]12CCC[C@@H]1CN(C1CCCC1)C2.O=C(O)C(F)(F)F" : -10.47

The molecule listed as Cc1cc(C(=O)N2CCCC(n3cncn3)C2)c(C)n1C1CC1 (stereo unspecified) has a reported Percent Effect of 0.2394

Record "CN(Cc1nc(Cc2cccc(C(F)(F)F)c2)no1)C1CCOCC1" . Reported Percent Effect: 106.5

For this molecule ( CC(C)C(Sc1nccn1C1CC1)C(=O)NCc1cccnc1 (stereo unspecified) ), measured Percent Effect is 93.78

Record summary for CC(C(=O)N(Cc1ccc(C#N)cc1)CC(F)(F)F)S(C)(=O)=O (stereo unspecified) : reported Percent Effect = -0.5778

Per the record, "COCCNC(=O)Nc1ccc(C(=O)N2CCSCC2)cc1C" has Percent Effect of -68.32

---

# key: entry, value: Percent Effect
# Test system: Wolbachia pipientis
# assay name: Anti-Wolbachia Cell-Based Screen
# Assay type: functional
# Design: scale not given: in the data most compounds retested in dose-response had high values
# condition summary: 5 µM
Screen size: about 48,000 compounds; about 13,000 (27%) showed an effect of 50% or more. Some of the results follow.
Report as a plain number; the unit % is understood.

Solved cases below.
[
  {
    "compound": "CCc1ccc(S(=O)(=O)Nc2cn(C)cc(Br)c2=O)cc1",
    "Percent Effect (%)": -15.07
  },
  {
    "compound": "COc1cccc2c1CCN(C(=O)NCCc1nccn1C)C2",
    "Percent Effect (%)": 2.215
  },
  {
    "compound": "CN1CC(c2ccccc2)CC2(CCN(C(=O)c3cccnn3)CC2)C1 (stereo unspecified)",
    "Percent Effect (%)": 0.4144
  }
]

The value of Percent Effect measured for the compound "CC1(C)[C@H](Cc2cc(CO)on2)C[C@@H]1NCc1ccc(CO)o1" turned out to be -1.541

Sure, the documented Percent Effect for "O=C(c1ccoc1)N1CCn2nc(CN3CCSCC3)cc2C1" is -1.758

Reported Percent Effect of "Cc1ccccc1CN(CCN(C)C)Cc1ccc(S(C)(=O)=O)cc1" : -5.606

---

# Test system: Wolbachia pipientis
# assay name: Anti-Wolbachia Cell-Based Screen
# Type: functional
# Design: scale not given: in the data most compounds retested in dose-response had high values
# condition summary: 5 µM
Hit rate of the full screen: of about 48,000 compounds, about 13,000 (27%) showed an effect of 50% or more. The list shows a part of the results.
Classification field: Met = Percent Effect at or over -10%; Not met = Percent Effect under -10%.

Reference set (4 entries):
[
  {
    "compound": "Cc1c(C)n(CC(O)CN2CCC(C)CC2)c2c(Cl)cccc12 (stereo unspecified)",
    "assigned class": "Not met"
  },
  {
    "compound": "Cc1cccc(CNC(=O)CC2CCN(Cc3ccccn3)CC2)n1",
    "assigned class": "Met"
  },
  {
    "compound": "Cc1cccc(C(=O)N2CCn3cc(CNC(=O)CC4CC4)nc3C2)n1",
    "assigned class": "Met"
  },
  {
    "compound": "COc1ccc(-c2noc(Cn3cnc(C)c3)n2)c(OC)c1OC",
    "assigned class": "Met"
  }
]

*Q* Test whether the compound "Cc1cccc(CNC(=O)CC2CCN(C(=O)C(C)C)CC2)n1" records Percent Effect of -10% or higher.
*A* Met

*Q* Say whether Cc1cccc(CNC(=O)C2CCC(=O)N(Cc3ccccc3F)C2)n1 (stereo unspecified) shows Percent Effect of -10% or more.
*A* Not met

---

# Test system: Wolbachia pipientis
# assay name: Anti-Wolbachia Cell-Based Screen
# Type: functional
# Parameters: scale not given: in the data most compounds retested in dose-response had high values
# condition summary: 5 µM
Hit rate of the full screen: of about 48,000 compounds, about 13,000 (27%) showed an effect of 50% or more. The list shows a part of the results.
measurement label: Percent Effect (%)
Numbers only here, please. The scale is %.

Worked examples, 3 molecules total:
[
  {
    "molecule": "COc1ccc(-c2noc([C@@H]3C[C@@H](O)CN3C3CCN(C)CC3)n2)cc1",
    "reading unit": "%",
    "test value": -10.46
  },
  {
    "molecule": "CC1CCN(C(=O)c2cn(-c3ccc(C(F)(F)F)cn3)nn2)CC1",
    "reading unit": "%",
    "test value": -7.014
  },
  {
    "molecule": "COc1ccc(-c2nccc(C3CCCN3C)n2)cc1 (stereo unspecified)",
    "reading unit": "%",
    "test value": 122.9
  }
]

Value of Percent Effect reported for the molecule COc1ccc(C2CCCN2c2cnccn2)c(OC)c1 (stereo unspecified) is 8.264

Percent Effect reading for "Cn1nc(C(=O)NC2CCCCC2)cc1NC(=O)C1CC1" : 0.3949

Sure, the documented Percent Effect for "COC(=O)c1cc(C(=O)N2CCCCCC2)n(-c2ccccc2)n1" is -9.69
